# Assayed System: KRAS G12V (Homo sapiens, UniProt P01116, G12V)
# Construct: SW620-KRAS (G12V)-HiBit-KI cell (Pharmaron); host or cells: SW620-KRAS (G12V)-HiBit-KI cells (HiBiT knock-in at the endogenous KRAS locus)
# Sequence (P01116 1-188 isoform P01116-2 G12V): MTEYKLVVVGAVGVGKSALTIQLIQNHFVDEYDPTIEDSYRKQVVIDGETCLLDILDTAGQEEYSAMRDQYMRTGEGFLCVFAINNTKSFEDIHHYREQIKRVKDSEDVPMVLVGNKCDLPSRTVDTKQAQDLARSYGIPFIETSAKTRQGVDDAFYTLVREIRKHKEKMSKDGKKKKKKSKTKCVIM
# Assay Method Text: KRAS G12V HiBit assay
# Type: cell-based
# Condition Details: SW620-KRAS (G12V)-HiBit-KI cells, compound treatment for 24 hours, class symbols
# Experimental: Day 1. […] Rinsed cultivated cells in T-75 flasks with 5 mL PBS (Solarbio, P1020-500). […] Inactivated trypsin by adding excessive serum containing medium. Harvested the cells from flask into cell culture medium and counted the cell number. Day 2. Test compounds were dissolved at 0.3 mM in DMSO (Solarbio, D8371) as stock solution. […] The degradation activity was calculated using the following formula: […]
Measured DC50, listed per entry.

The examples below pair each entry with its known result.
Compound: CCc1c(F)ccc2cc(O)cc(-c3ncc4c(N5CCC[C@H](N)C5)nc(OC[C@@]56CCCN5[C@H](COC(=O)N5CCC7(CC5)CC(N5CCC(c8ccc9c(c8)n(C)c(=O)n9C8CCC(=O)NC8=O)CC5)C7)CC6)nc4c3F)c12 (some centres unmarked) [Compound 477]
Attribute Measured: DC50
Readout Value: > 0.1 µM
//
Compound: C#Cc1c(F)ccc2cc(O)cc(-c3ncc4c(N5CCC[C@@](C)(O)C5)nc(OC[C@@]56CCCN5[C@H](COC(=O)N5CCC(COC7CN(c8ccc9c(c8)n(C)c(=O)n9C8CCC(=O)NC8=O)C7)CC5)CC6)nc4c3F)c12 (some centres unmarked) [Compound 132]
Attribute Measured: DC50
Readout Value: < 0.01 µM

DC50 reported for this compound C#Cc1c(F)ccc2cc(O)cc(-c3ncc4c(N5CCCC(F)(F)C5)nc(OC[C@]56CCCN5[C@H](COC(=O)N5CCC(CN7CCC(c8ccc9c(c8)n(C)c(=O)n9C8CCC(=O)NC8=O)CC7)CC5)CC6)nc4c3F)c12 (some centres unmarked) [Compound 431] : < 0.01 µM

DC50 reported for this compound CCc1c(F)ccc2cc(O)cc(-c3ncc4c(N5CCC[C@@](C)(O)C5)nc(OC[C@]56CCCN5[C@H](COC(=O)N5CCC(N7CCC(c8ccc9c(c8)n(C)c(=O)n9C8CCC(=O)NC8=O)C7)CC5)CC6)nc4c3F)c12 (some centres unmarked) [Compound 337] : 0.01 to 0.1 µM

DC50 reported for this compound C#Cc1c(F)ccc2cc(O)cc(-c3ncc4c(N5CCCCCC5)nc(OCC5(CN6CCN(CC7CCN(c8ccc9c(c8)n(C)c(=O)n9C8CCC(=O)NC8=O)CC7)CC6)CC5)nc4c3F)c12 (centres unmarked) [Compound 16] : > 0.1 µM
